- Tested on: Phakopsora pachyrhizi (F129L)
- ASSAY PROCEDURE: Protective control of soybean rust on soybeans (PHAKPA P6)
- Type: in vivo
- CONDITION INFO: protective P6, 16 ppm, soybean rust F129L isolate
ENDPOINT LABEL: % PHAKPA (F129L) Disease level P6 at 16 ppm (%)
Please give a number only; it is taken to be in %.

Look up % PHAKPA (F129L) Disease level P6 at 16 ppm: CO/N=C(\C)COc1cccc(/C(C)=N/OCc2c(C)cccc2/C(=N\OC)C(=O)OC)c1
57

Please answer likewise for CNC(=O)/C(=N/OC)c1cccc(C)c1CO/N=C(\C)c1cccc(F)c1OC(F)(F)F
4

Continuing:
Look up % PHAKPA (F129L) Disease level P6 at 16 ppm: CO/N=C(/C(=O)OC)c1cccc(C)c1CO/N=C(\C)c1c(F)cc(Br)cc1C(F)(F)F
73

Please answer likewise for CNC(=O)/C(=N/OC)c1cccc(C)c1CO/N=C(\C)c1ccc(Oc2ccc(Cl)cc2)cc1C(F)(F)F
17

###

- System: Phakopsora pachyrhizi (F129L)
- ASSAY PROCEDURE: Protective control of soybean rust on soybeans (PHAKPA P6)
- Assay type: in vivo
- CONDITION INFO: protective P6, 16 ppm, soybean rust F129L isolate
Recorded % PHAKPA (F129L) Disease level P6 at 16 ppm, one value per entry.
Please give a number only; it is taken to be in %.

Look up % PHAKPA (F129L) Disease level P6 at 16 ppm: CNC(=O)/C(=N/OC)c1cccc(C)c1CO/N=C(\C)c1ccccc1OC1CC1
73

Please answer likewise for CNC(=O)/C(=N/OC)c1cccc(C)c1CO/N=C(\C)c1ccccc1C(F)F
37

Please answer likewise for CNC(=O)/C(=N/OC)c1cccc(C)c1CO/N=C(\C)c1ccccc1COC
100

Continuing:
Look up % PHAKPA (F129L) Disease level P6 at 16 ppm: CNC(=O)/C(=N/OC)c1cccc(C)c1CO/N=C(\C)c1ccccc1C#N
97

Please answer likewise for CC/C(=N\OCc1c(C)cccc1/C(=N\OC)C(=O)NC)c1ccccc1
0

Please answer likewise for CO/N=C(/C(=O)OC)c1cccc(C)c1CO/N=C(\C)c1ccccc1C(C)C
100

Please answer likewise for CNC(=O)/C(=N/OC)c1cccc(C)c1CO/N=C(\C)c1ccc(C)cc1OC(F)(F)F
7

Please answer likewise for CNC(=O)/C(=N/OC)c1cccc(C)c1CO/N=C(\C)c1ccc(Br)cc1C(F)(F)F
8

Please answer likewise for CO/N=C(/C(=O)OC)c1cccc(C)c1CO/N=C(\C)c1ccc(C)c(C(F)(F)F)c1
6

Please answer likewise for CNC(=O)/C(=C/OC)c1cccc(C)c1CO/N=C(\C)c1cccc(C(F)(F)F)c1
83

###

- Test system: Phakopsora pachyrhizi (F129L)
- ASSAY PROCEDURE: Protective control of soybean rust on soybeans (PHAKPA P2)
- Format: in vivo
- CONDITION INFO: protective P2, 4 ppm, F129L isolate
ENDPOINT LABEL: % PHAKPA (F129L) Disease level P2 at 4 ppm
Lab note: write values as number then unit, every time.

Look up % PHAKPA (F129L) Disease level P2 at 4 ppm: CO/C=C(/C(=O)OC)c1cccc(C)c1CO/N=C(\C)c1ccccc1CC(F)(F)F [compound 437]
2%

Please answer likewise for CNC(=O)/C(=N/OC)c1cccc(C)c1CO/N=C(\C)c1ccc(F)c(F)c1OC(F)(F)F [compound 451]
1%

Please answer likewise for CO/C=C(/C(=O)OC)c1cccc(C)c1CO/N=C(\C)c1c(Cl)cc(Cl)cc1OC(F)(F)F [compound 436]
70%

Please answer likewise for CNC(=O)/C(=N/OC)c1cccc(Br)c1CO/N=C(\C)c1ccccc1 [compound 396]
3%

Please answer likewise for CO/N=C(/C)c1ccc(/C(C)=N/OCc2c(C)cccc2/C(=N\OC)C(=O)OC)c(C(F)(F)F)c1 [compound 417]
35%

Please answer likewise for CO/N=C(/C(=O)OC)c1cccc(C)c1CO/N=C(\C)c1ccc(C#N)cc1C(F)(F)F [compound 423]
100%

Please answer likewise for CO/C=C(/C(=O)OC)c1cccc(C)c1CO/N=C(\C)c1ccc(Br)cc1C(F)(F)F [compound 445]
15%

Please answer likewise for CO/C=C(/C(=O)OC)c1cccc(C)c1CO/N=C(\C)c1ccc(OC(F)(F)F)cc1Cl [compound 463]
6%

Please answer likewise for CNC(=O)/C(=N/OC)c1cccc(C)c1CO/N=C(\CC(F)(F)F)c1ccccc1C [compound 393]
93%

Please answer likewise for C=Cc1cccc(/C(=N\OC)C(=O)NC)c1CO/N=C(\C)c1ccccc1 [compound 400]
2%

Continuing:
Look up % PHAKPA (F129L) Disease level P2 at 4 ppm: CO/C=C(/C(=O)OC)c1cccc(C)c1CO/N=C(\C)c1ccc(Cl)c(F)c1OC(F)(F)F [compound 452]
60%

Please answer likewise for CO/N=C(/C(=O)OC)c1cccc(C)c1CO/N=C(\C)c1ccc(-c2ccccc2)cc1C(F)(F)F [compound 414]
53%

###

Recorded % PHAKPA (F129L) Disease level P6 at 16 ppm, one value per entry.
- Test system: Phakopsora pachyrhizi (F129L)
- ASSAY PROCEDURE: Protective control of soybean rust on soybeans (PHAKPA P6)
- Type: in vivo
- CONDITION INFO: protective P6, 16 ppm, soybean rust F129L isolate
Please give a number only; it is taken to be in %.

Look up % PHAKPA (F129L) Disease level P6 at 16 ppm: CO/N=C(/C(=O)OC)c1cccc(C)c1CO/N=C(\C)c1ccc(OC(F)(F)F)cc1C [compound 259]
40

Please answer likewise for CO/N=C(/C(=O)OC)c1cccc(C)c1CO/N=C(\C)c1ccc(F)cc1Cl [compound 256]
20

Continuing:
Look up % PHAKPA (F129L) Disease level P6 at 16 ppm: CO/N=C(/C(=O)OC)c1cccc(C)c1CO/N=C(\C)c1cc(F)ccc1Br [compound 254]
100

Please answer likewise for CNC(=O)/C(=N/OC)c1cccc(C)c1CO/N=C(\C)c1cc(C)ccc1C [compound 278]
93

Please answer likewise for CO/N=C(/C(=O)OC)c1cccc(C)c1CO/N=C(\C)c1c(F)cccc1Cl [compound 283]
22

Please answer likewise for CO/N=C(/C(=O)OC)c1cccc(C)c1CO/N=C(\C)c1cc(Cl)ccc1C(F)(F)F [compound 251]
80

Please answer likewise for CO/N=C(/C(=O)OC)c1cccc(C)c1CO/N=C(\C)c1ccccc1OC(F)(F)F [compound 236]
100

###

- Test system: Cercospora sojina
- Type: cell-based
- CONDITION INFO: 4 ppm, 7 days after inoculation, relative to compound-free control (100%)
Could you mark each record 1 if its Fungal growth (%) CERCSO falls strictly under 60%, and 0 if it equals or exceeds it?

Example results:
Is 60% strictly greater than the molecule's reported Fungal growth (%) CERCSO? molecule: CO/N=C(/C(=O)OC)c1cccc(C)c1CO/N=C(\C)c1cccc(C)c1
1

Please answer likewise for CNC(=O)/C(=N/OC)c1cccc(C)c1CO/N=C(\C)c1cccc(Cl)c1
1

Continuing:
Is 60% strictly greater than the molecule's reported Fungal growth (%) CERCSO? molecule: CO/N=C(/C(=O)OC)c1cccc(C)c1CO/N=C(\SC)c1cccc(Cl)c1 [drawing 965]
0

Please answer likewise for CO/N=C(/C(=O)OC)c1cccc(C)c1CO/N=C(\C)c1cccc(C(F)(F)F)c1
1

Please answer likewise for CNC(=O)/C(=N/OC)c1cccc(C)c1CO/N=C(\SC)c1cccc(Cl)c1 [drawing 970]
0

Please answer likewise for CNC(=O)/C(=N/OC)c1cccc(C)c1CO/N=C(\SC)c1cccc(C(F)(F)F)c1
0

###

- Tested on: Phakopsora pachyrhizi (F129L)
- ASSAY PROCEDURE: Protective control of soybean rust on soybeans (PHAKPA P2)
- Format: in vivo
- CONDITION INFO: protective P2, 4 ppm, F129L isolate
Recorded % PHAKPA (F129L) Disease level P2 at 4 ppm, one value per entry.
Please give a number only; it is taken to be in %.

Consider the reported % PHAKPA (F129L) Disease level P2 at 4 ppm for these compounds:
Please provide the recorded % PHAKPA (F129L) Disease level P2 at 4 ppm for CO/C=C(/C(=O)OC)c1cccc(C)c1CO/N=C(\C)c1c(Cl)ccc(Cl)c1OC(F)(F)F , tested on Phakopsora pachyrhizi (F129L).
100

Please answer likewise for CO/C=C(/C(=O)OC)c1cccc(C)c1CO/N=C(\C)c1ccc(C)cc1C(F)(F)F
2

Continuing:
Please provide the recorded % PHAKPA (F129L) Disease level P2 at 4 ppm for CNC(=O)/C(=N/OC)c1cccc(C)c1CO/N=C(/c1ccccc1)C(C)C , tested on Phakopsora pachyrhizi (F129L).
28

Please answer likewise for CO/C=C(/C(=O)OC)c1cccc(C)c1CO/N=C(\C)c1ccc(Cl)c(Cl)c1C(F)(F)F
22

Please answer likewise for CNC(=O)/C(=N/OC)c1cccc(C)c1CO/N=C(\C)c1ccc(Cl)c(Cl)c1C(F)(F)F
32

Please answer likewise for CNC(=O)/C(=N/OC)c1cccc(C)c1CO/N=C(\C)c1cc(F)c(F)cc1C(F)(F)F
9

Please answer likewise for CO/N=C(/C(=O)OC)c1cccc(C)c1CO/N=C(\C)c1ccc(-c2ccc(F)cc2)cc1C(F)(F)F
27

Please answer likewise for CCC/C(=N\OCc1c(C)cccc1/C(=N\OC)C(=O)NC)c1ccccc1
1

Please answer likewise for C=C(C)c1cccc(/C(=N\OC)C(=O)NC)c1CO/N=C(\C)c1ccccc1
67

Please answer likewise for CO/C=C(/C(=O)OC)c1cccc(C)c1CO/N=C(\C)c1ccccc1OC(F)(F)F
37

Please answer likewise for CCC/C(=N\OCc1c(C)cccc1/C(=N\OC)C(=O)OC)c1ccccc1
60

Please answer likewise for CNC(=O)/C(=N/OC)c1cccc(C)c1CO/N=C(\C)c1ccc(Cc2ccccc2)cc1C(F)(F)F
12

Please answer likewise for CO/C=C(/C(=O)OC)c1cccc(C)c1CO/N=C(\C)c1c(F)cccc1C(F)(F)F
22

Please answer likewise for CO/N=C(/C)c1ccc(/C(C)=N/OCc2c(C)cccc2/C(=N\OC)C(=O)OC)c(OC(F)(F)F)c1
70

Please answer likewise for CNC(=O)/C(=N/OC)c1cccc(C)c1CO/N=C(\C)c1cc(F)c(F)cc1CC(F)(F)F
97

Please answer likewise for CNC(=O)/C(=N/OC)c1cccc(C)c1CO/N=C(\C)c1ccc(Cl)c(F)c1OC(F)(F)F
33

Please answer likewise for CO/N=C(/C(=O)OC)c1cccc(C)c1CO/N=C(\C)c1ccc(Cl)c(Cl)c1C(F)(F)F
83

Please answer likewise for CNC(=O)/C(=N/OC)c1cccc(C)c1CO/N=C(\C)c1c(Cl)ccc(Cl)c1OC(F)(F)F
100

Please answer likewise for CNC(=O)/C(=N/OC)c1cccc(C)c1CO/N=C(\C)c1cccc(Cl)c1C(F)(F)F
30

Please answer likewise for CNC(=O)/C(=N/OC)c1cccc(C)c1CO/N=C(\C)c1ccc(-c2ccccc2)cc1C(F)(F)F
40

Please answer likewise for CNC(=O)/C(=N/OC)c1cccc(C)c1CO/N=C(\C)c1c(Cl)ccc(F)c1OC(F)(F)F
93

Please answer likewise for CO/C=C(/C(=O)OC)c1cccc(C)c1CO/N=C(\C)c1ccc(-c2ccccc2)cc1OC(F)(F)F
83

Please answer likewise for CNC(=O)/C(=N/OC)c1cccc(C)c1CO/N=C(\C)c1ccc(Cl)c(F)c1CC(F)(F)F
47

Please answer likewise for CO/N=C(/C(=O)OC)c1cccc(C)c1CO/N=C(\C)c1cc(F)c(F)cc1C(F)(F)F
77
